Recorded measurements of MFI, one per entry
Target or test system: T1, human BLyS (full length, arginine to histidine at position 132) on CHO-K1 cells (human, UniProt Q9Y275 1-285)
T1 construct: also called hBLyS; CHO-K1 hBLyS
T1 sequence (Q9Y275 whole entry R130H): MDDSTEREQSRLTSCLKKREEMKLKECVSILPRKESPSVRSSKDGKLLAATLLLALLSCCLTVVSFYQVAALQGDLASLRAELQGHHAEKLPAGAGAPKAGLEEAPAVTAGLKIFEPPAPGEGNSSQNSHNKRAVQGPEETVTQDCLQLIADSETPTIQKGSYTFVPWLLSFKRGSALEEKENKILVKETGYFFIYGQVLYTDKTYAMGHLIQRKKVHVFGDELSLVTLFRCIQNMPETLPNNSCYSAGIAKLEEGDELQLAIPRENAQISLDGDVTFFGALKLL
Test details: flow cytometry, CHO-K1 hBLyS cells, antibody 0 nM
Write it as a number; the unit MFI goes unstated.

These recorded examples may help you get a feel for the data.
1. 89A2G5E7 (antibody, V domains shown, Mouse hybridoma monoclonal antibody purified on Protein G) VH: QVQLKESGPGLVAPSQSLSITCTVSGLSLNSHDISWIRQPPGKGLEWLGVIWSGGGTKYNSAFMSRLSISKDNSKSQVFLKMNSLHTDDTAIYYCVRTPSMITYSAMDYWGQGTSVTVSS VL: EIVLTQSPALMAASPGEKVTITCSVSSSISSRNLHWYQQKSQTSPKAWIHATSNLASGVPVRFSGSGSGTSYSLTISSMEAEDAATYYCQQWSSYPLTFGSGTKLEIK; 31
2. 67A2E1D10 (antibody, V domains shown, Mouse hybridoma monoclonal antibody purified on Protein G) VH: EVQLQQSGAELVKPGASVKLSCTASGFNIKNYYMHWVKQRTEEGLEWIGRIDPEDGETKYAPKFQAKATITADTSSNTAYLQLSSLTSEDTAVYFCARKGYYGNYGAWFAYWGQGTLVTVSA VL: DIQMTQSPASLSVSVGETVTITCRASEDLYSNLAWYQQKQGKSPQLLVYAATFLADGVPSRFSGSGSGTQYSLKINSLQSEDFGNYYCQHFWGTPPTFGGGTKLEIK; 31.2
3. L1D12 (antibody, V domains shown, From a human naive scFv phage library; also called human BLyS antibody L1D12; LID12) VH: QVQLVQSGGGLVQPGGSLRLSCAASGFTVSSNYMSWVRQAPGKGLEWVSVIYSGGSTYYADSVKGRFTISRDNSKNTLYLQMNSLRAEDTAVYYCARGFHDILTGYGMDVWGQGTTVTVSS VL: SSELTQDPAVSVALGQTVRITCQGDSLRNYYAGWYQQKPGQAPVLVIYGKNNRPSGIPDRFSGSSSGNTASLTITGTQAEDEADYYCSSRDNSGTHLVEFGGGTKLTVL; 101
4. 111D10D6G3 (antibody, V domains shown, Mouse hybridoma monoclonal antibody purified on Protein G) VH: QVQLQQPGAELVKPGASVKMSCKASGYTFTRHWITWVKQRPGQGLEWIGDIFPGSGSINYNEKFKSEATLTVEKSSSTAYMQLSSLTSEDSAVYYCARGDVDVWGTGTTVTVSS VL: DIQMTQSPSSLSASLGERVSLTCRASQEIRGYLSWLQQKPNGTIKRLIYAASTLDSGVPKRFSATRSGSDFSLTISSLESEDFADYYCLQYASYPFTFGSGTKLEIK; 32.4
5. 35E6F7C3 (antibody, V domains shown, Mouse hybridoma monoclonal antibody purified on Protein G) VH: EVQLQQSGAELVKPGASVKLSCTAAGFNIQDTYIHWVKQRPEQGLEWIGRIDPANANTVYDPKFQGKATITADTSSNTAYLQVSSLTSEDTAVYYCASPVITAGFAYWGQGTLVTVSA VL: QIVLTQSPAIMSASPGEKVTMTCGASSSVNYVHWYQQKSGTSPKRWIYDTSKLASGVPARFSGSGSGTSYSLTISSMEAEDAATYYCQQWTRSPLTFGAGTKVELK; 52.4

Fill blank: measured MFI of the binder 78C11D2D12 (antibody, V domains shown, Mouse hybridoma monoclonal antibody purified on Protein G) VH: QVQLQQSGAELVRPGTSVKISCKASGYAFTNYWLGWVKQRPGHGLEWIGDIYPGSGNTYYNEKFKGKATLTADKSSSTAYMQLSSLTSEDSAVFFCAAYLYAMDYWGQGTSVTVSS VL: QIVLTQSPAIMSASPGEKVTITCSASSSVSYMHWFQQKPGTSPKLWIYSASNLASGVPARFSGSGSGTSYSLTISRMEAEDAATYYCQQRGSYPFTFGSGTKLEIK is ____.
31.2

Please give the result for 97E7B3F2 (antibody, V domains shown, Mouse hybridoma monoclonal antibody purified on Protein G) VH: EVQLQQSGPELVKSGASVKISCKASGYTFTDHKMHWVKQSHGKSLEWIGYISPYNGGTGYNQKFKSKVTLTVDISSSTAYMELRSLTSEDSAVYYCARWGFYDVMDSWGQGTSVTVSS VL: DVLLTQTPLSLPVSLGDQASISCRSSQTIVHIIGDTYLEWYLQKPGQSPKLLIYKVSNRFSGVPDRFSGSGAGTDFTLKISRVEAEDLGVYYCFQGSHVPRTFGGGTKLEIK too.
32.4

Ok, now 8E7D9C7F5 (antibody, V domains shown, Mouse hybridoma monoclonal antibody purified on Protein G) VH: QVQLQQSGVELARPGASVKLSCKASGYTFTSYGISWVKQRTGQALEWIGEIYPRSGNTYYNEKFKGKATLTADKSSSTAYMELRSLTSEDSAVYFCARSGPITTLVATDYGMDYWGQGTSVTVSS VL: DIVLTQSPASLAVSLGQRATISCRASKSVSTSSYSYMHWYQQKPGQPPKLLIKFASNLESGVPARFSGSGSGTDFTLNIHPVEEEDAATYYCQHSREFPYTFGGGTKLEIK
152

Try this binder next: L9G7 (antibody, V domains shown, From a human naive scFv phage library; also called human BLyS antibody L9G7) VH: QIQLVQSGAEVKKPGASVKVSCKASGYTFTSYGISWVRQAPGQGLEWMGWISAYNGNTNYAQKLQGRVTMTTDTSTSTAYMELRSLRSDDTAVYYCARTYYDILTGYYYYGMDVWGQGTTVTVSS VL: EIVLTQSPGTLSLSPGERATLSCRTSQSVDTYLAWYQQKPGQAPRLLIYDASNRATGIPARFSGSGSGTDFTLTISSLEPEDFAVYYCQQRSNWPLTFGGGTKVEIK
101

For 2-1G11 (antibody, V domains shown, From a human naive scFv phage library; also called human BLyS antibody 2-1G11) VH: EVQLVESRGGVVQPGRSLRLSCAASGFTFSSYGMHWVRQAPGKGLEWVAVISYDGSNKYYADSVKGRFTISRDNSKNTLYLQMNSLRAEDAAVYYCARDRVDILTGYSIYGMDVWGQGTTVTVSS VL: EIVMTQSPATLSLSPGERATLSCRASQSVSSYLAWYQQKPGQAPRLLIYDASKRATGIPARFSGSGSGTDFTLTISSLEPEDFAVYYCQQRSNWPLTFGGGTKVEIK then?
186
